# Test system: ACHN renal
# TEST_PROTOCOL: NCI tumour cell line growth inhibition, 48 h
Where a SMILES comes first, the peptide text is derived from it. The star is where a group is joined. OSu = O=C1CCC(=O)N1O*
This listing pairs compounds with measured TGI.

Item NCCCCC(NC(=O)C(N)Cc1ccc(O)cc1)C(=O)NC(Cc1ccc(O)cc1)C(=O)NC(CCCCN)C(=O)ON1C(=O)CCC1=O (stereo unspecified) (H-YKYK-OSu; configuration not given here) ; assay system ACHN renal; TGI reported as > 100 µM

The reported TGI value, ACHN renal, for CCn1c(CSc2nc(-c3ccccc3)c(-c3ccccc3)[nH]2)n[nH]c1=S reads > 100 µM

The reported TGI value, ACHN renal, for CC(CC[C@@]1(O)OC2C[C@H]3[C@@H]4CC[C@H]5CC(OC6OC(CO)C(OC7OC(CO)C(O)C(OC8OCC(O)C(O)C8O)C7OC7OC(CO)C(O)C(O)C7O)C(O)C6O)[C@H](O)CC5(C)[C@H]4CCC3(C)C2[C@@H]1C)COC1OC(CO)C(O)C(O)C1O (stereo partly specified) reads > 50 µM

New cases:
Here CN(C)N=Nc1ccc2[nH]c(=O)[nH]c2c1 was tested on ACHN renal, and its TGI came to > 100 µM

# value of TGI, ACHN renal, item COc1cc(CN(c2ccc(C)cc2)C2OC(=O)c3ccccc32)cc(OC)c1OC (stereo unspecified) = > 100 µM

The recorded TGI with ACHN renal for COc1cc(NC(C)CCCNC(C)C)c2ncccc2c1OC (stereo unspecified) was > 100 µM

----------
Entries and their measured TGI follow.
# System: SF-295 CNS
# TEST_PROTOCOL: NCI tumour cell line growth inhibition, 48 h

The compound listed as C=CCn1c(=N)/c(=C(\N)O)s/c1=C1/SC(=S)N(c2ccc(C)cc2)C1=O shows TGI equal to > 100 µM

The compound O=C1C=C(Nc2ccc(S(=O)(=O)Nc3ncccn3)cc2)c2ccccc2C1=O showed TGI equal to 35 µM

For record Nc1ccccc1C(=O)NC(=O)Nc1ccc(Oc2ncc(Br)cn2)c(Cl)c1 the listed TGI is 0.127 µM

Value of TGI reported for the compound Cc1noc(C)c1-c1cnc2c(-c3ccc(C(=O)O)cc3)cn([C@@H](C)c3ccccn3)c2c1 is > 100 µM

Measured TGI, C=C(C)C(=O)OC1C[C@H](COC(C)=O)C2CC=C(CO)C2C2OC(=O)C(=C)[C@H]12 (stereo partly specified) : > 100 µM

// field: TGI; key: Cn1cc(C2=C(c3ccccc3C(F)(F)F)C(=O)NC2=O)c2ccccc21 ; value = > 17.2 µM

----------
# System: OVCAR-5 ovarian
# TEST_PROTOCOL: NCI tumour cell line growth inhibition, 48 h
Reported TGI by item:
# number only, unit µM dropped from output

Observe how each entry below is paired with its result.
Memo: CC/C(Cc1ccccc1)=C(/c1ccc(O)cc1)c1ccc(OCCN2CCCC2)cc1 , reported TGI: 3.93

get_value(item= COc1cc2nc(-c3cccc4cccnc34)nc(NC3CCN(Cc4ccccc4)CC3)c2cc1OC , readout=TGI) returns 2.73

// TGI value for Oc1c(O)c(Cl)c(Cl)c(Cl)c1Cl : 42.5

Turning to the following compound.
Nc1ccc(-c2ccc3ncc4ccc(=O)n(-c5cccc(C(F)(F)F)c5)c4c3c2)cn1 yielded TGI of 31.5

----------
# Test system: MDA-MB-231 breast
# TEST_PROTOCOL: NCI tumour cell line growth inhibition, 48 h
PARAMETER: GI50

Some entries whose results are on file:
The recorded GI50 for entry COc1ccc2[nH]c(C(=O)OCc3ccc4cccc(O)c4n3)cc2c1 equals 1.17 µM

Recorded result, CN1CCN(CCCOc2cccc3nc(Nc4ccc(F)c(F)c4)ccc23)CC1 , GI50: 0.937 µM

The compound identified as O=C(O)Cn1ccc2ccccc21 registered its GI50 at > 100 µM

get_value(item= Nc1nc2c(ccc3ccccc32)s1 , readout=GI50) returns > 100 µM

The compound identified as CC(C)(C)c1nc(-c2cccc(NS(=O)(=O)c3c(F)cccc3F)c2F)c(-c2ccnc(N)n2)s1 registered its GI50 at 7.19 µM

Turning now to a further compound:
Entry under test: Nc1ccc(-c2ccc3ncc4ccc(=O)n(-c5cccc(C(F)(F)F)c5)c4c3c2)cn1 . Its GI50 was < 0.0141 µM

----------
# Test system: T-47D breast
# TEST_PROTOCOL: NCI tumour cell line growth inhibition, 48 h
This listing pairs molecules with measured TGI.

Let me check: CC(=O)O[C@H]1C(=O)[C@@]2(C)[C@H]([C@H](OC(=O)c3ccccc3)[C@]3(O)C[C@H](OC(=O)[C@H](O)[C@@H](NC(=O)c4ccc(N(C)C)cc4)c4ccccc4)C(C)=C1C3(C)C)[C@]1(OC(C)=O)CO[C@@H]1C[C@@H]2O , system T-47D breast, measured TGI is > 50 µM

Entry O=C(O)Cn1ccc2ccccc21 , T-47D breast data, TGI value: > 100 µM

For the molecule CCOC(=O)C1(C(=O)OCC)C=C(c2ccccc2)N(C2OC(COC(C)=O)C(OC(C)=O)C(OC(C)=O)C2OC(C)=O)C1=S (centres undefined) , the measured TGI on T-47D breast was > 100 µM

Per the reported T-47D breast data, Cn1cc(C2=C(c3ccccc3C(F)(F)F)C(=O)NC2=O)c2ccccc21 has TGI of > 25 µM

----------
# Test system: SK-MEL-5 melanoma
# TEST_PROTOCOL: NCI tumour cell line growth inhibition, 48 h
# Lookup of reported TGI keyed by entry

Past entries and their recorded results:
The reported SK-MEL-5 melanoma TGI of C1CC2=C(C1)C1=S(S2)SC2=C1CCC2 is > 100 µM

The molecule C[C@H]1O[C@@H](C(C)(C)C)OC(=O)[C@@H]1C(OC(=O)c1ccccc1)c1cccc2ccccc12 (stereo not given in full) , when measured on SK-MEL-5 melanoma, yielded TGI of > 100 µM

Field TGI (system: SK-MEL-5 melanoma) for entry C#C[C@]1(O)CC[C@H]2[C@@H]3CCC4=C/C(=N/OC(=O)c5cccc6c(=O)c7ccccc7[nH]c56)CCC4[C@H]3CC[C@@]21CC (stereo not given in full) = > 53.1 µM

Result for COc1cc(OC)c(C2(c3c(OC(C)C)c(=O)c3=O)SCCCS2)cc1OC , tested on SK-MEL-5 melanoma, TGI: > 100 µM

New cases:
SK-MEL-5 melanoma data for CC1(C)OC2OC(COC(=O)c3ccc(C#N)cc3)C3OC(C)(C)OC3C2O1 (stereo not given) ; its TGI: > 75 µM

Entry CN(C)c1ccc(/C=C(\NC(=O)c2ccccc2)C(=O)NC(Cc2c[nH]c3ccccc23)C(=O)O)cc1 (stereo not given) : TGI on SK-MEL-5 melanoma = > 100 µM

Reading of TGI for O=C(Nc1ccc2c(c1)OCCO2)C(=O)c1c[nH]c2ccccc12 with SK-MEL-5 melanoma: > 100 µM

Tested on SK-MEL-5 melanoma, the item Cc1ccc(S(=O)(=O)NC(=O)NC(CCC(N)=O)C(=O)O)cc1 (stereo not given) showed TGI equal to > 100 µM

----------
List of TGI values.
# Tested on: SF-539 CNS
# TEST_PROTOCOL: NCI tumour cell line growth inhibition, 48 h

TGI recorded for this molecule, C=CCCC(=O)C(=[N+]=[N-])C(=O)CCC(=O)c1ccccc1 , is > 10 µM

Short answer for O=C(/C(=N/Nc1ccccc1)c1ccc([N+](=O)[O-])cc1)c1ccc([N+](=O)[O-])cc1 : TGI was > 100 µM

----------
In this section, each of the compounds is paired with its reported TGI.
# Tested on: LOX IMVI melanoma
# TEST_PROTOCOL: NCI tumour cell line growth inhibition, 48 h

Consider the following illustrative entries.
Reading of TGI for COc1cc(NC(C)CCCNC(C)C)c2ncccc2c1OC (configuration not stated) with LOX IMVI melanoma: > 100 µM

Item: Cn1cc(C2=C(c3ccccc3C(F)(F)F)C(=O)NC2=O)c2ccccc21 | System: LOX IMVI melanoma | TGI: > 25 µM

Query COc1cccc2cc(C(=O)NC34CC5CC(CC(C5)C3)C4)c(=N)oc12 on LOX IMVI melanoma; TGI returned: > 100 µM

Log: LOX IMVI melanoma, compound COc1ccc2c(c1)CCc1c(CO)c(COC(=O)NC(C)C)n(C)c1-2 , TGI = 25.4 µM

The recorded TGI with LOX IMVI melanoma for C/C(CC(=O)Nc1ccc(NC(=O)C/C(C)=N\NC(N)=O)cc1)=N/NC(N)=O was > 60.1 µM

More entries:
Entry O=C(c1ccco1)N(C(=S)N1CCN(c2ccccn2)CC1)c1ccccc1 , LOX IMVI melanoma data, TGI value: > 100 µM

Per the reported LOX IMVI melanoma data, C/C(O)=C(\C=NC(=S)c1ccncc1)C(=O)Nc1ccccc1C has TGI of > 100 µM
